Target: Torsin-1A-interacting protein 2 (Homo sapiens) (UniProt Q8NFQ8)
Sequence (Q8NFQ8 whole entry, looked up): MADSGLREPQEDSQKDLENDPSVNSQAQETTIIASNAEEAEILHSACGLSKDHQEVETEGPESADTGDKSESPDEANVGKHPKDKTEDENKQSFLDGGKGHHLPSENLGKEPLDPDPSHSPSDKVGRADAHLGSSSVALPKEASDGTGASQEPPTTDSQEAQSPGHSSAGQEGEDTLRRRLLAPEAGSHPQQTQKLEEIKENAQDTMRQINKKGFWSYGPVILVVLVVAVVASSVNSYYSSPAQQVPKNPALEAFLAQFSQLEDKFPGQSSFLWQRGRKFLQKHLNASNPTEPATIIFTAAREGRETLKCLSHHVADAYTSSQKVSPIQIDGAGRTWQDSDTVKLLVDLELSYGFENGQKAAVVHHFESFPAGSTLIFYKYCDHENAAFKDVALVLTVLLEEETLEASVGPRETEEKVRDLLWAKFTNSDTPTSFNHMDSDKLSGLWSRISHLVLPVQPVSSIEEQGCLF
Experiment: LULL1 binders on small-molecule microarray, primary screen, cell lysate, human LULL1 lysate, 635/667 nm fluorescence (AID 1092);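 also: probe is lysate of COS7 cells overexpressing human LULL1; score merges per-feature 667 nm fluorescence with signal-to-noise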
Details: hLULL1 lysate binding, 635 nm fluorescence, higher = more signal
Entries and their measured composite z-score follow.
Lab note: record just the number, no unit beside it.

molecule: COC1OC[C@]2(C)[C@H]3C4=C(CN2C(=O)OC(C)(C)C)[C@H](C)C(CO)C(CO)C4CC[C@@H]13 (some centres not stated)
composite z-score: 3.44

Briefly, composite z-score measured for "COc1ccc([Si](C)(C)[C@H]2[C@H](CC(=O)N(CCO)Cc3ccccc3)O[C@@]3(C(=O)N(Cc4cccc(N5CCOC5=O)c4)c4ccccc43)[C@@H]2C)cc1" : 1.35

Briefly, composite z-score measured for "COCCCNC(=O)[C@]1(CCS(=O)(=O)c2ccccc2)N=C(c2ccc(OCCCO)cc2)O[C@@H]1c1ccccc1CN=[N+]=[N-]" : 3.47

Briefly, composite z-score measured for "CC(C)(C)OC(=O)CC[C@]1(C(=O)NCc2ccccc2)N=C(c2ccc(OCCCO)cc2)O[C@H]1c1ccccc1CN=[N+]=[N-]" : 3.46

Briefly, composite z-score measured for "COc1ccc(CCN2C(=O)[C@@]3(Cc4ccccc42)c2ccccc2C(=O)N(Cc2ccccc2OC)[C@H]3c2ccc(CO)cc2)cc1" : 1.66

Briefly, composite z-score measured for CC[C@H]1C2=C3C(CC[C@H]4C(OCc5ccc(F)cc5C(F)(F)F)OC[C@](C)([C@@H]34)N(C(=O)OC(C)(C)C)C2)C(COC)C1COC (some centres not stated) : 1.68

Briefly, composite z-score measured for "[N-]=[N+]=Nc1ccccc1C[C@]1(C(=O)N2CCOCC2)N=C(c2ccc(OCCCO)cc2)O[C@H]1c1ccccc1" : 2.69

----------
Assay: A549 lung cancer cell viability effects, profiling panel, resazurin fluorescence, 24 h, PK04 Diversity Set (AID 1171); also: test concentration not given here
Conditions: higher = more signal, called active from +8 up or from −8 down
Use Criterion met when the recorded z-score is no lower than -0.6; use Criterion not met when it is lower.

Some solved cases for reference:
compound: COC(=O)c1ccc([C@H](NC(=O)c2ccco2)[C@]2(C)C[C@H]2C2CCCCC2)cc1
assignedClass: Criterion not met
--
compound: CN1C(=O)C2C=CC(C(O)c3ccccn3)N(N(c3ccccc3)c3ccccc3)C2C1=O (stereo not given)
assignedClass: Criterion not met
--
compound: CCOC(=O)C[C@H]1[C@H](OC(=O)c2cc3ccccc3oc2=O)[C@@H](NC(=O)Cc2ccc(OC)cc2)c2cc(OCCCO)ccc2N1C(=O)c1ccc2ccccc2n1
assignedClass: Criterion met
--
compound: NC(=O)N1C(=O)C2C(C1=O)C1C=C(CCCO)C2C(c2cccs2)N1Cc1cccc(OC(F)(F)F)c1 (stereo not given)
assignedClass: Criterion met
--
compound: COc1ccc([Si](C)(C)[C@@H]2[C@@H](CCO)O[C@]3(C(=O)N(Cc4ccc(N5CCCCC5=O)cc4)c4ccccc43)[C@H]2C)cc1
assignedClass: Criterion not met

Given the entry "COc1ccc([Si](C)(C)[C@@H]2[C@@H](CC(=O)N3Cc4ccccc4C[C@H]3CO)O[C@]3(C(=O)N(Cc4cccc(N5C(=O)c6cccc7cccc5c67)c4)c4ccccc43)[C@H]2C)cc1" , answer whether its z-score meets or surpasses -0.6.
Criterion not met

Given the entry O=C1OCCC=C[C@H]2OC34C=CCN(Cn5nnc6ccccc65)C(=O)[C@H]3N(CCCCCCO)C(=O)[C@@H]4C12 (stereo not given in full) , answer whether its z-score meets or surpasses -0.6.
Criterion met

Given the entry "C=C(/C(=C/C[C@H](OC(C)=O)c1ccccc1OCCO)c1cc(C(=O)OC)ccc1OC)C(C)C" , answer whether its z-score meets or surpasses -0.6.
Criterion met

Given the entry Cn1cccc1C(O)C1C=CC2C(=O)NC(=O)C2N1Nc1ccc(Cl)cc1Cl (stereo not given) , answer whether its z-score meets or surpasses -0.6.
Criterion met

Given the entry "C=C[C@@H](OC)[C@H](OC(=O)Nc1ccc(SC)cc1)c1ccc(O)c(F)c1" , answer whether its z-score meets or surpasses -0.6.
Criterion not met

Given the entry "C#CCN([C@@H](Cc1ccc(O)cc1)C(=O)OC)[C@@H](/C=C/C1CC1)[C@H](O)Cc1ccccc1" , answer whether its z-score meets or surpasses -0.6.
Criterion met

----------
Entries and their measured z-score follow.
Experiment: P. aeruginosa biofilm formation inhibitors, primary screen, PAO1 strain, BacTiter-Glo luminescence, LB-PBS (AID 1144)
Settings: 12 h, higher = more signal
Lab note: record just the number, no unit beside it.

Below, each entry is followed by its recorded z-score result.
compound: COc1ccccc1CN1C(=O)c2ccccc2[C@](Cc2ccccc2I)(C(=O)NCC(F)(F)F)[C@@H]1c1ccc(CO)cc1
z-score: -0.243

compound: O=C1N(Cc2ccccc2)Cc2ccccc2[C@@H]2OC(c3ccc(OCCCO)cc3)=N[C@]12CCS(=O)(=O)c1ccccc1
z-score: 0.245

compound: CC(C)(C)N1CC=CC23O[C@@H]4C=CCOC(=O)[C@@H]4[C@H]2C(=O)N(CCCCCCO)[C@@H]3C1=O (some centres not stated)
z-score: 2.06

Briefly, z-score measured for "COc1ccc(-c2cc3c(c(CCc4ccccc4)n2)[Si](C(C)C)(C(C)C)OC3)cn1" : -0.0937

Briefly, z-score measured for "[N-]=[N+]=Nc1ccccc1C[C@]1(C(=O)N2CCOCC2)N=C(c2ccc(OCCCO)cc2)O[C@H]1c1ccccc1" : 0.567

Briefly, z-score measured for "CCCC[C@@H]1C[C@H]1[C@@H](NC(=O)c1cccs1)c1ccc(C(F)(F)F)cc1" : 0.195

Briefly, z-score measured for "COC(=O)C(CC#Cc1ccc2c(c1)[C@]1(C(=O)N2)[C@H](c2ccccc2OCCO)N2[C@H](c3ccccc3)[C@H](c3ccccc3)OC(=O)[C@H]2[C@@H]1C(=O)NC[C@H](O)c1ccccc1)C(=O)OC" : -1.26

----------
Test system: Sonic hedgehog protein (Shh)
Assay: small-molecule binders of Shh protein, primary screen, biochemical, small-molecule microarray, 635/667 nm fluorescence (AID 1151);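 also: Shh protein binding to compounds spotted on small-molecule microarray slides; score combines spot fluorescence intensity with signal-to-noise across triplicate slides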
Settings: small-molecule microarray binding, 635 nm fluorescence; higher = more signal
measureName: composite z-score
Lab note: record just the number, no unit beside it.

compound: COCCOC(=O)N1C(=O)[C@@]2(c3cc(C#Cc4ccc(OC)cc4)ccc31)[C@H](C(=O)Nc1nc3ccccc3s1)[C@H]1C(=O)O[C@H](c3ccccc3)[C@H](c3ccccc3)N1[C@@H]2c1ccc(OCCO)cc1
composite z-score: 1.84
--
compound: COC(=O)c1c(CC[C@@H](CO)NC(=O)N[C@H](Cn2cc(C3(O)CCCCC3)nn2)C(C)C)oc(C(C)=O)c1C(=O)OC
composite z-score: 1.59
--
compound: OCC1CC(c2ccccc2)=NO1 (centres undefined)
composite z-score: 0.0003
--
compound: COC(=O)[C@@]1(Cc2ccc(F)cc2)[C@H]2c3cc(C(=O)N4CCCC4)n(CCc4ccc(O)c(O)c4)c3C[C@H]2CN1C(=O)c1ccccc1
composite z-score: -0.987
--
compound: COC(=O)[C@@]1(Cc2ccc(OC)cc2)[C@@H]2C(=CC(=O)[C@H]2CC(=O)C(=O)N(C)C)CN1C(=O)c1ccccc1
composite z-score: -0.671
--
compound: CCCCCCCCCCC(O)C1C=CC2C(=O)N(C)C(=O)C2N1NC(=O)OC(C)(C)C (centres undefined)
composite z-score: -0.813
--
compound: C[C@H]1NC(=O)[C@@]23C(=O)N[C@@H](Cc4ccccc4)C2[C@H](C)[C@@]2(C)O[C@H]2C3/C=C/C/C=C\CNC(=O)[C@H](Cc2ccccc2)NC1=O (some centres undefined)
composite z-score: 1.63
--
compound: CN1C(=O)C2C=CC(C(O)c3ccc(F)cc3)N(Nc3ccccc3)C2C1=O (centres undefined)
composite z-score: 0.137

Briefly, composite z-score measured for "O=C1O[C@H](c2ccccc2)[C@H](c2ccccc2)N2[C@H]1[C@@H](C(=O)NC[C@H](O)c1ccccc1)[C@]1(C(=O)Nc3ccc(C#CCCO)cc31)[C@H]2c1ccc(OCCO)cc1" : 1.76

Briefly, composite z-score measured for "COCCOC(=O)N1C(=O)[C@@]2(c3cc(C#CCCO)ccc31)[C@H](c1ccccc1OCCO)N1[C@H](c3ccccc3)[C@H](c3ccccc3)OC(=O)[C@H]1[C@@H]2C(=O)Nc1nc2ccccc2s1" : 1.66

Briefly, composite z-score measured for "C=CCN1Cc2ccccc2[C@H]2OC(c3ccc(OCCCO)cc3)=N[C@@]2(CC=C)C1=O" : 1.91

Briefly, composite z-score measured for "CC1=C[C@@]2(CO)C(=O)[C@]3(CO3)[C@@H]1[C@H]1[C@]2(C)C=C(CO)C(=O)[C@]12CO2" : 0.265

Briefly, composite z-score measured for CN1C(=O)C2C=CC(C(O)c3ccccn3)N(N(c3ccccc3)c3ccccc3)C2C1=O (centres undefined) : 0.424

Briefly, composite z-score measured for "C=CCOC(=O)[C@H]1[C@@H]2C(=O)O[C@@H](c3ccccc3)[C@@H](c3ccccc3)N2[C@@H](c2ccc(OCCOC(=O)[C@H]3C[C@H]4C(=O)N[C@@H](CCCCNC(C)=O)C(=O)N4[C@H]3c3ccc(O)cc3)cc2)[C@]12C(=O)Nc1ccccc12" : 1.75
